SYSTEM_NAME: KOPr (Homo sapiens)
Sequence (P41145 whole entry): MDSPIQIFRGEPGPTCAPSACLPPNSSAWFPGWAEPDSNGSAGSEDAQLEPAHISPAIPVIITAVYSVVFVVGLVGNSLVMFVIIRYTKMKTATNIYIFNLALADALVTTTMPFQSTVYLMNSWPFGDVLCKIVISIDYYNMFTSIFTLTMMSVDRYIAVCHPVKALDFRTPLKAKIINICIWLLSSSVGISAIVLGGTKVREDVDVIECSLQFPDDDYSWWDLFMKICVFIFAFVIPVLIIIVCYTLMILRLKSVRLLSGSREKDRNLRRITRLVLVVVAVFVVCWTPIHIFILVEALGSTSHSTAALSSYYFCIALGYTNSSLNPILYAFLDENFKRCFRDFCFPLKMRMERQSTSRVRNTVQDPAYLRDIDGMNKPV
EXPERIMENT_SUMMARY: [35S]GTPγS binding, CHO membranes, standard U69593
Assay type: biochemical
STATED_CONDITIONS: Ke/nM KOPr, antagonist Ke versus U69593, single agonist concentration
OBSERVED_PROPERTY: Kd (nM)
Field: numeric (nM). Do not append units.

Observe how each entry below is paired with its result.
C[C@H]1CC2=C([C@@H]3Oc4c(O)ccc5c4[C@@]34CCN(CC3CC3)[C@H](C5)[C@]4(O)C2)N(Cc2ccccc2)C1=O
2.03
CN1C(=O)CCC2=C1[C@@H]1Oc3c(O)ccc4c3[C@@]13CCN(C)[C@H](C4)[C@]3(O)C2
392
CN1CC[C@]23c4c5ccc(O)c4O[C@H]2C2=C(C[C@H](CCO)C(=O)N2Cc2ccccc2)C[C@@]3(O)[C@H]1C5
16.8
C[C@@H]1CC2=C([C@@H]3Oc4c(O)ccc5c4[C@@]34CCN(CC3CC3)[C@H](C5)[C@]4(O)C2)N(Cc2ccccc2)C1=O
0.23
CN1C(=O)[C@H](CCO)CC2=C1[C@@H]1Oc3c(O)ccc4c3[C@@]13CCN(C)[C@H](C4)[C@]3(O)C2
321

Which measured Kd value corresponds to O=C1CCC2=C([C@@H]3Oc4c(O)ccc5c4[C@@]34CCN(CC3CC3)[C@H](C5)[C@]4(O)C2)N1CC1CCCCC1 ?
0.48

Which measured Kd value corresponds to O=C1[C@@H](CCO)CC2=C([C@@H]3Oc4c(O)ccc5c4[C@@]34CCN(CC3CC3)[C@H](C5)[C@]4(O)C2)N1Cc1ccccc1 ?
2.22
